// merged dataset of pIC50 values, system = 3',5'-cyclic-AMP phosphodiesterase 4B (Homo sapiens), multiple refs
Sequence (Q07343 whole entry): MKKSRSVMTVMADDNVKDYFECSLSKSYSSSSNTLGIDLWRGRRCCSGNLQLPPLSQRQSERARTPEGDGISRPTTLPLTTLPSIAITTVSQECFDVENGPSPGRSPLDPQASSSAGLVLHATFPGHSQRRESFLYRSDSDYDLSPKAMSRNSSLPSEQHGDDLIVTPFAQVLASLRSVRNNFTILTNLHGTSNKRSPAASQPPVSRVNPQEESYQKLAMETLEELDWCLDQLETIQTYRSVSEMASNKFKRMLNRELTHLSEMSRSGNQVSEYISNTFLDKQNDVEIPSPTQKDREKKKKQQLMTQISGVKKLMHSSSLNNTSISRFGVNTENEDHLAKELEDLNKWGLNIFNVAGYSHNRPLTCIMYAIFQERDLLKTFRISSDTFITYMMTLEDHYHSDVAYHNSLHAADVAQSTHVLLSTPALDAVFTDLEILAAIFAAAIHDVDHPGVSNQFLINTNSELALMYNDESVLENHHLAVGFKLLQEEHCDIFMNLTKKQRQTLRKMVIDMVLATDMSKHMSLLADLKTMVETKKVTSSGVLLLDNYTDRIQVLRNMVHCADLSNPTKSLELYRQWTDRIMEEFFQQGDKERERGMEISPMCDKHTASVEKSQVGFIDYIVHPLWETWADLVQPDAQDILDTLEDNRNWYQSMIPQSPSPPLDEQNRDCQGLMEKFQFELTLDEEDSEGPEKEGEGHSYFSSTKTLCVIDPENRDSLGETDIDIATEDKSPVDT
pIC50: −log10 of the molar value.
outcomeMeasure: pIC50

Here are 5 molecules together with their reported answers.
What does the data say about its pIC50? Entry: CCc1cc2nc(NC3CCCC3)n(CC)c(=O)c2s1
5.46

What does the data say about its pIC50? Entry: COc1ccc(-c2nc(C(=O)n3nc(C)cc3C)co2)cc1
5.80

What does the data say about its pIC50? Entry: O=C(c1ccc(-c2ccc(Cl)cc2)o1)N1CCc2ccccc2C1
5.39

What does the data say about its pIC50? Entry: CCOc1ccc(/C=C2\SC(=S)NC2=O)cc1OC1CCCC1
5.73

What does the data say about its pIC50? Entry: COc1ccc(-c2nc(C(=O)NCc3ccc(S(C)(=O)=O)cc3)c(CN)o2)c2ccc(C(F)(F)F)nc12
7.43

(P) COc1ccc(-c2nc3c(c(Nc4ccc(CC(=O)O)cc4)n2)SCCC3)cn1
(Q) CC(C)c1nccn1-c1ccc(C2=Nc3c(C(C)(C)C)nn(CCO)c3C(=O)NC2)cc1
# returns the entry with the larger pIC50; inputs P and Q // respond with label for picked entry
P
(P: 6.85, Q: 6.48)

(1) COc1ccc(C(=O)Nc2c(Cl)cncc2Cl)c2cc(C(C)C)nn12
(2) Cc1cc(C)n(C(=O)c2coc(-c3ccc(F)cc3)n2)n1
I would appreciate it if you could say which entry, 1 or 2 , has the lower pIC50 value. // respond with label for picked entry
2
